Some molecules, each annotated with its measured IC50.
# Subject Of Test: FGFR2 (Homo sapiens, UniProt P21802)
# Sequence (P21802 399-821 limits assumed): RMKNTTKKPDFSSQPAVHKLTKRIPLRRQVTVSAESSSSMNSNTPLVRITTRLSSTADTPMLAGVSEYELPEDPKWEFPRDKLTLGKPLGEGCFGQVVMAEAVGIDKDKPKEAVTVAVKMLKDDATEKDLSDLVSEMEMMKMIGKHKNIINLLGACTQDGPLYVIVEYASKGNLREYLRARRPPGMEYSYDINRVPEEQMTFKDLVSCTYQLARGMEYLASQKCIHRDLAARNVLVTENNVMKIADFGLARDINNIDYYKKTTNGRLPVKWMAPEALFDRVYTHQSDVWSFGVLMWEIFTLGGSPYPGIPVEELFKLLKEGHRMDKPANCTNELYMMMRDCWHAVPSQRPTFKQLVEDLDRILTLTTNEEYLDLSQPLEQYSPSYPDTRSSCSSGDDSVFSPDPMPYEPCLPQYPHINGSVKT
# Measurement Protocol: FGFR wild type enzyme assay (HTRF KinEASE-TK), FGFR2
# Assay Setup: FGFR2 Enz, Table 4
Measure: IC50 (nM)

> print(dat)
                                     smiles  value.measured
1  CN[C@H]1CC[C@@H](n2ncc(-c3cc(Sc4ccccc4C#N)c4c(C#N)cnn4c3)c2C)CC1             0.3
2  N#Cc1cnn2cc(-c3cnn([C@H]4CCCNC4)c3)cc(Sc3ccccn3)c12               3
3  Cc1nc(Sc2cc(-c3cnn(C4CCN(C)CC4)c3C)cn3ncc(C#N)c23)ccc1F            0.12
4  Cc1c(-c2cc(Sc3cccc(F)c3C#N)c3c(C#N)cnn3c2)cnn1C1CCNCC1               1
